- TGT: T1, FX activation peptide 12-mer PDSITWKPYDAA (human)
- T1 peptide: PDSITWKPYDAA-biotin
- METHOD_NOTES: peptide ELISA
Ends that are not written are not given here.
Record form. Attribute: ELISA signal relative to background. Fill in for each entry.

[[record]]
binder = "Nb 730C03 (VHH, monovalent Nanobody; also called Nb 730003; not shown: C-terminal FLAG3 and HIS6 tag) VHH: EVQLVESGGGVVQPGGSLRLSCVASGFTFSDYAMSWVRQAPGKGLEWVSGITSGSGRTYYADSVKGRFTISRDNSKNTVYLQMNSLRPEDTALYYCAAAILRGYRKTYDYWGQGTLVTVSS"
recorded_endpoint = "ELISA signal relative to background"
reported_value = 1.24


Query :: Any idea what its ELISA signal relative to background is? The binder is Nb 701B09 (VHH, monovalent Nanobody; also called Nb 701609; not shown: C-terminal FLAG3 and HIS6 tag) VHH: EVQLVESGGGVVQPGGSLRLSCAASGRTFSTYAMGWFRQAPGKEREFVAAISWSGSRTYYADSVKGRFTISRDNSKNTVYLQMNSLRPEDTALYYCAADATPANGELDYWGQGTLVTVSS
Result :: 0.83
